target: natural β-amyloid peptide β-AP1-40 (human); experiment: cell-based or functional assay
Sequence (peptide, as listed by the source): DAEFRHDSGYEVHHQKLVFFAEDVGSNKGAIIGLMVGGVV
* marks the point of attachment. Cholyl = C[C@H](CCC(=O)*)[C@H]1CC[C@H]2[C@@H]3[C@H](O)C[C@@H]4C[C@H](O)CC[C@]4(C)[C@H]3C[C@H](O)[C@]12C; iminobiotinyl = N=C1N[C@H]2[C@H](CS[C@H]2CCCCC(=O)*)N1
Provide the recorded Fold Increase in Lag Time; nucleation assay; 100 mole % for the entries that follow.
Just the number in fold, nothing appended.

Reported Fold Increase in Lag Time; nucleation assay; 100 mole % ( Cholyl-KLVF-NH2 (SMILES CC(C)C[C@H](NC(=O)[C@H](CCCCN)NC(=O)CC[C@@H](C)[C@H]1CC[C@H]2[C@@H]3[C@H](O)C[C@@H]4C[C@H](O)CC[C@]4(C)[C@H]3C[C@H](O)[C@]12C)C(=O)N[C@H](C(=O)N[C@@H](Cc1ccccc1)C(N)=O)C(C)C) [cholyl-Aβ16-19-amide (PPI-321 as printed in Table IV)] ) = 1.2

Reported Fold Increase in Lag Time; nucleation assay; 100 mole % ( iminobiotinyl-KLVFF-OH [iminobiotinyl-Aβ16-20] ) = 1.3

Entry source: patent US7658917
